# tested.on: CAMKK1 (human) (UniProt Q8N5S9)
# Sequence (Q8N5S9 whole entry, looked up): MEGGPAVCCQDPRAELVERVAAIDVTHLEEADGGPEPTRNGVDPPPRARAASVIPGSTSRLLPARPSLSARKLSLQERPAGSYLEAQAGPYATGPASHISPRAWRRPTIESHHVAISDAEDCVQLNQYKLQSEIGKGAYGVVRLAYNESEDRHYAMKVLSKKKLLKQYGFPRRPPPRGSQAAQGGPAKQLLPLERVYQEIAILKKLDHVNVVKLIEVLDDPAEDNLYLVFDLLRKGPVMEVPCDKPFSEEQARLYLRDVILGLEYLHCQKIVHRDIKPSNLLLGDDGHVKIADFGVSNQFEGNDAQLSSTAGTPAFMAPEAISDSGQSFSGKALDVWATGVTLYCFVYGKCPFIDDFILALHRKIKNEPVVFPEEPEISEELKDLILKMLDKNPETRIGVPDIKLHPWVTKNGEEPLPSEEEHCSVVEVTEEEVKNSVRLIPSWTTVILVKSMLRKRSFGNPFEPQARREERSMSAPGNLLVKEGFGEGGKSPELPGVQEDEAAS
# assay.procedure: radiometric filter-binding kinase assay, Kinase HotSpot
# study.conditions: compound 0.5 µM; ATP 10 µM
The reader will find reported residual activity values listed item by item below.
Response body: numeric value in %, unit text excluded.

Example results:
INSERT INTO measurements (cpd_smiles, quantitative_result) VALUES
  ('C#Cc1cccc(Nc2ncnc3cc(OCCOC)c(OCCOC)cc23)c1', 98.7),
  ('CCCNC(=O)Nc1ccc(Oc2ncnc3cc(OC)c(OC)cc23)cc1Cl', 93.1),
  ('CC(C)[C@H](CO)Nc1nc(Nc2cccc(Cl)c2)c2ncn(C(C)C)c2n1', 101),
  ('Cc1ccc(NC(=O)c2ccc(CN3CCN(C)CC3)cc2)cc1Nc1nc(-c2cccnc2)cs1', 97.6),
  ('Cc1cc2ncc(-c3ccccc3)nc2cc1C', 98);

As a next step, examine the compound that follows.
query: I am curious: what residual activity value has been reported for `CC(C)n1cnc2c(Nc3cccc(Cl)c3)nc(NCCO)nc21` ?
result: 88.2

###

Reported residual activity values follow for various molecules
# tested.on: UniProt:O96013
# Sequence (O96013 whole entry, looked up): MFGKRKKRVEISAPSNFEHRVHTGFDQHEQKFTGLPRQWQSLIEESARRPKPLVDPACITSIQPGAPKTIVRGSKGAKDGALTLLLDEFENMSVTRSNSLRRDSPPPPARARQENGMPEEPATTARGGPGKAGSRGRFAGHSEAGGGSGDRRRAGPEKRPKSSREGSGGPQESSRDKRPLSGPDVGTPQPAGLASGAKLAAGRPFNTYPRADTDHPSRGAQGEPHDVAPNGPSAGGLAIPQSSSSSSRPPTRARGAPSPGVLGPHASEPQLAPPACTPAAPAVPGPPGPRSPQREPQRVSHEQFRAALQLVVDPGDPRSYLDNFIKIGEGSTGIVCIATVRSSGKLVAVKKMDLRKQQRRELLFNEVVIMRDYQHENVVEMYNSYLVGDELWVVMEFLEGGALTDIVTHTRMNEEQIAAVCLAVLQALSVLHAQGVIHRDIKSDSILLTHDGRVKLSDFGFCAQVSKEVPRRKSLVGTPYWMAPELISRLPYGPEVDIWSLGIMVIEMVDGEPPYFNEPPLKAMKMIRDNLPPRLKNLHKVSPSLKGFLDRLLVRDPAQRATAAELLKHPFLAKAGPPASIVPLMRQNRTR
# assay.procedure: radiometric filter-binding kinase assay, Kinase HotSpot
# study.conditions: compound 0.5 µM; ATP 10 µM
Could you give me the number in %? Just the number is fine.

query: What value of residual activity has been recorded for this entry: `Nc1nc(Nc2ccc(S(N)(=O)=O)cc2)nn1C(=S)Nc1c(F)cccc1F`
result: 47.6

query: State the recorded residual activity for this entry: `Oc1ccc(-c2nc(-c3ccc(F)cc3)c(-c3ccncc3)[nH]2)cc1`
result: 98.6

query: Sample O=C(NC(NC(=S)Nc1ccc(F)c([N+](=O)[O-])c1)C(Cl)(Cl)Cl)C(c1ccccc1)c1ccccc1 (stereo not given) — what was its residual activity?
result: 118

###

residual activity overview
# tested.on: MET (human) (UniProt P08581)
# Sequence (P08581 whole entry, looked up): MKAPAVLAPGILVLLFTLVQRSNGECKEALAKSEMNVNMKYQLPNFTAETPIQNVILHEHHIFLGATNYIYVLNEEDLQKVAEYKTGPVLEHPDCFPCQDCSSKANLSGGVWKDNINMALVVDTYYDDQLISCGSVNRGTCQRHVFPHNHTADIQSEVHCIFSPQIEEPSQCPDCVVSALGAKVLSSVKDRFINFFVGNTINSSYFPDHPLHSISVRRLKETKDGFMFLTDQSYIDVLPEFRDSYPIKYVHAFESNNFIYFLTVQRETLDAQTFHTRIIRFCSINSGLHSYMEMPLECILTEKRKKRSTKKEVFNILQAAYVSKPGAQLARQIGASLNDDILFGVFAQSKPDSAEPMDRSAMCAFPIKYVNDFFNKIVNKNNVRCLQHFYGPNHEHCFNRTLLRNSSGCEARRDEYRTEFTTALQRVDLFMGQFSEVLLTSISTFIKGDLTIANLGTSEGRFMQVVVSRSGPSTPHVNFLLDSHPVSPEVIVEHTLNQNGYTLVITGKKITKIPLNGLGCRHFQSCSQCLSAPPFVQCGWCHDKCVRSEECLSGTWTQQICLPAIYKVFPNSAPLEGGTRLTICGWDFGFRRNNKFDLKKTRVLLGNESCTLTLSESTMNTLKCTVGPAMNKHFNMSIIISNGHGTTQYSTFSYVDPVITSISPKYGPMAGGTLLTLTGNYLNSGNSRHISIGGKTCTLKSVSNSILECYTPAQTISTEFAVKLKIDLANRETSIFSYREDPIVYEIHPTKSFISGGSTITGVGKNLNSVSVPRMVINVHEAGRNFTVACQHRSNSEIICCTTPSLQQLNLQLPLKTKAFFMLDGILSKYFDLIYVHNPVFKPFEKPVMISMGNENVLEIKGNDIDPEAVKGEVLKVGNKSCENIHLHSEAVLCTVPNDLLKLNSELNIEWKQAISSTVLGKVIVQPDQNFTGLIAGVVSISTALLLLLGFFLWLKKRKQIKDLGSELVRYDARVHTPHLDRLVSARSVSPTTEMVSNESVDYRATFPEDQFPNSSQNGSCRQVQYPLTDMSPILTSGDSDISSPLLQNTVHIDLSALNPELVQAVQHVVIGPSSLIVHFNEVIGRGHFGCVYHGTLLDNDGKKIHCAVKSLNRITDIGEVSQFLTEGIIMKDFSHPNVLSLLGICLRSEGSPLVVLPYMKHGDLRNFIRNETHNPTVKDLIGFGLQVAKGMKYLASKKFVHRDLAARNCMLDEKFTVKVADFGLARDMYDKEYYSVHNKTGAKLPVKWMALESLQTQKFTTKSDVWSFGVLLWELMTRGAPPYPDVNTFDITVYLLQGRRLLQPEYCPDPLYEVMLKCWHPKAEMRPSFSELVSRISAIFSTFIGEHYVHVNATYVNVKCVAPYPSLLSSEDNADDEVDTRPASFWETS
# assay.procedure: radiometric filter-binding kinase assay, Kinase HotSpot
# study.conditions: compound 0.5 µM; ATP 10 µM
Write down the numeric answer in % and omit the unit.

query: Can you share its residual activity? I mean this compound: `CCN1/C(=C/C(C)=O)Sc2ccc(OC)cc21`
result: 103

query: I would be grateful if you could share the reported residual activity for `O=C(Nc1ccc(Cl)cc1)c1ccccc1NCc1ccncc1` .
result: 92.2

query: Give its residual activity value. Item: `O=C1Nc2ccccc2/C1=C\c1c(Cl)[nH]c2ccccc12`
result: 109

query: I am curious: what residual activity value has been reported for `Clc1ccc(Nc2nnc(Cc3ccncc3)c3ccccc23)cc1` ?
result: 94

query: Quick one: residual activity for CS(=O)c1ccc(-c2nc(-c3ccc(F)cc3)c(-c3ccncc3)[nH]2)cc1 (centres undefined) ?
result: 103

query: Which residual activity value is on record for `Cc1ccc(NC(=O)c2ccc(CN3CCN(C)CC3)cc2)cc1Nc1nc(-c2cccnc2)cs1` ?
result: 104

query: Find the recorded residual activity belonging to `COc1cc2nccc(Oc3ccc(NC(=S)NC(=O)c4ccccc4C)cc3)c2cc1OC` and report it.
result: 60.4

###

# reported residual activity; entries follow
# tested.on: UniProt:Q02156
# Sequence (Q02156 whole entry, looked up): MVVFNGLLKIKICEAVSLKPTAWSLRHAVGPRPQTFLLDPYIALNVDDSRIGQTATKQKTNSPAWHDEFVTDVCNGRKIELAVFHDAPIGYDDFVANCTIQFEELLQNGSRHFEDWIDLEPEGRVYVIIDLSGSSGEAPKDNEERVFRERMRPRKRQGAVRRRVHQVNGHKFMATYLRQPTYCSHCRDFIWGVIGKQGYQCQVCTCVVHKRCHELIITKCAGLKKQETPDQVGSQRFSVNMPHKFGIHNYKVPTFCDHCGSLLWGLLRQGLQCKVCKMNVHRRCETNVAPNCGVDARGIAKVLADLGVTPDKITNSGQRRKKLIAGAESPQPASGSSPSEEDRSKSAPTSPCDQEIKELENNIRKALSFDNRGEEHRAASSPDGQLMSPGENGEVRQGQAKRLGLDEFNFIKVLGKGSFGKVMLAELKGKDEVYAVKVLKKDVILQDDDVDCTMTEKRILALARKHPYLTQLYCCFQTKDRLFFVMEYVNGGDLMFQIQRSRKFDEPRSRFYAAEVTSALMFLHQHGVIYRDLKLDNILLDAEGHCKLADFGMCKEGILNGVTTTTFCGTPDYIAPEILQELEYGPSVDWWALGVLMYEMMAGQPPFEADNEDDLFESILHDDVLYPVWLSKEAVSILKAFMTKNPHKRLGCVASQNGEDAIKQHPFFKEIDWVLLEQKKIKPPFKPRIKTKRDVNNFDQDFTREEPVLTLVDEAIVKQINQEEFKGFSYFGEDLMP
# assay.procedure: radiometric filter-binding kinase assay, Kinase HotSpot
# study.conditions: compound 0.5 µM; ATP 10 µM
# output: bare number, implied unit %

Worked cases, residual activity given:
INSERT INTO measurements (cpd_smiles, reported_metric, unit_annotation, quantitative_result) VALUES
  ('O=c1cc(-c2cccc3c2Sc2ccccc2S3)oc(N2CCOCC2)c1', 'residual activity', '%', 109),
  ('CC(C)[C@H](CO)Nc1nc(Nc2cccc(Cl)c2)c2ncn(C(C)C)c2n1', 'residual activity', '%', 115);

query: Could you tell me which residual activity is on file for `Nc1n[nH]c2nnc(-c3c(-c4ccccc4)nn4ccccc34)cc12` ?
result: 72.7

query: State the recorded residual activity for this entry: `NC(=O)c1ccc(N(C(N)=O)c2c(F)cccc2F)nc1-c1ccc(F)cc1F`
result: 101

query: Fill in: residual activity of `CC(C)n1cnc2c(Nc3cccc(Cl)c3)nc(NCCO)nc21` is ___
result: 93.6

###

# tested.on: CDK2 CCNE1 (human) (UniProt P24941+P24864)
# Sequence (P24864 whole entry, looked up, other chains not shown): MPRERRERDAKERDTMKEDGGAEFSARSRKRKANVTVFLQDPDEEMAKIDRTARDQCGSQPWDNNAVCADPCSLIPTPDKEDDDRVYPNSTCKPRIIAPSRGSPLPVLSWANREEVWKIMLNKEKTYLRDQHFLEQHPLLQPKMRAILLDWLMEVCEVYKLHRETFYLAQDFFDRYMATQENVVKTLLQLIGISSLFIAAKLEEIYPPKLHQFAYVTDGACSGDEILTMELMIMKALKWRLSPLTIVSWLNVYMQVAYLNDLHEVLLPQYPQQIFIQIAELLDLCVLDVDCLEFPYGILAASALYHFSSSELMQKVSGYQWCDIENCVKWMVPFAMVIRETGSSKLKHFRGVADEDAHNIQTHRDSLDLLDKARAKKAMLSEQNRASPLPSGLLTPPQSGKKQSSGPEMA
# assay.procedure: radiometric filter-binding kinase assay, Kinase HotSpot
# study.conditions: compound 0.5 µM; ATP 10 µM
Criterion: residual activity strictly less than 90%. Met: criterion met. Not met: criterion not met.

INSERT INTO assay_data (compound, assigned_class) VALUES
  ('Nc1nc(Nc2ccc(S(N)(=O)=O)cc2)nn1C(=O)c1c(F)cccc1F', 'criterion met');

query: Confirm or reject: residual activity of `COc1cc2ncnc(Nc3ccc(F)c(Cl)c3)c2cc1OCCCN1CCOCC1` lies strictly below 90%
result: criterion not met

query: Item `Cc1cc(Nc2cc(N3CCN(C)CC3)nc(Sc3ccc(NC(=O)C4CC4)cc3)n2)[nH]n1` : residual activity beneath 90%, strictly?
result: criterion not met

query: API: query returns whether the compound falls strictly under 90% in residual activity. Query: `Nc1n[nH]c2nnc(-c3c(-c4ccccc4)nn4ccccc34)cc12`
result: criterion not met

query: Input `Nc1nc(Nc2ccc(S(N)(=O)=O)cc2)nn1C(=S)Nc1c(F)cccc1F` ; condition: residual activity strictly below 90%. Does it hold?
result: criterion met

query: Please determine if CS(=O)c1ccc(-c2nc(-c3ccc(F)cc3)c(-c3ccncc3)[nH]2)cc1 (configuration not stated) is below 90% in terms of residual activity.
result: criterion not met

query: hey, is residual activity for `Clc1ccc(Nc2nnc(Cc3ccncc3)c3ccccc23)cc1` lower than 90% or not?
result: criterion not met

###

# tested.on: DCLK2 (human)
# assay.procedure: radiometric filter-binding kinase assay, Kinase HotSpot
# study.conditions: compound 0.5 µM; ATP 10 µM
reported.metric: residual activity (%)
Unit % implied. Number only.

Some entries whose results are on file:
INSERT INTO measurements (compound, quantitative_result) VALUES
  ('O=C1Nc2cc(Br)ccc2/C1=C1/Nc2ccccc2/C1=N\O', 99.1),
  ('CS(=O)c1ccc(-c2nc(-c3ccc(F)cc3)c(-c3ccncc3)[nH]2)cc1 (stereo not given)', 99.8),
  ('Cc1cc2ncc(-c3ccccc3)nc2cc1C', 100),
  ('O=C(NC(NC(=S)Nc1ccc(F)c([N+](=O)[O-])c1)C(Cl)(Cl)Cl)C(c1ccccc1)c1ccccc1 (stereo not given)', 108),
  ('CCN1/C(=C/C(C)=O)Sc2ccc(OC)cc21', 97.9);

query: residual activity lookup needed for `Cc1ccc(NC(=O)c2ccc(CN3CCN(C)CC3)cc2)cc1Nc1nc(-c2cccnc2)cs1` , thanks.
result: 102

query: Param item = `O=C1Cc2c([nH]c3ccc([N+](=O)[O-])cc23)-c2ccccc2N1` ; retrieve measured residual activity.
result: 105

query: Need residual activity, item `O=C1Nc2ccccc2/C1=C\c1c(Cl)[nH]c2ccccc12`
result: 93.5

query: So what's the measured residual activity for this one? `Nc1nc(Nc2ccc(S(N)(=O)=O)cc2)nn1C(=O)c1c(F)cccc1F`
result: 85.3

query: So what's the measured residual activity for this one? `COc1ccc(-c2cnc3c(-c4ccsc4)cnn3c2)cc1`
result: 97.5

###

# tested.on: EPHA3 (human) (UniProt P29320)
# assay.procedure: radiometric filter-binding kinase assay, Kinase HotSpot
# study.conditions: compound 0.5 µM; ATP 10 µM
// residual activity lookup, one value per entry
Just the number please, in %, no unit attached.

INSERT INTO results (molecule, tested_on, reported_metric, quantitative_result) VALUES
  ('Oc1ccc(-c2nc(-c3ccc(F)cc3)c(-c3ccncc3)[nH]2)cc1', 'EPHA3 (human) (UniProt P29320)', 'residual activity', 99),
  ('CC(C)n1cnc2c(Nc3cccc(Cl)c3)nc(NCCO)nc21', 'EPHA3 (human) (UniProt P29320)', 'residual activity', 90.3),
  ('O=c1cc(N2CCNCC2)oc2c(-c3ccccc3)cccc12', 'EPHA3 (human) (UniProt P29320)', 'residual activity', 88.5);

In the following, a different molecule is considered.
query: Name the reported residual activity value associated with the molecule CSc1nc(-c2ccc(F)cc2)c(-c2ccnc(NC(C)c3ccccc3)c2)[nH]1 (centres undefined)
result: 82.5

###

# tested.on: UniProt:Q9H422
# Sequence (Q9H422 whole entry, looked up): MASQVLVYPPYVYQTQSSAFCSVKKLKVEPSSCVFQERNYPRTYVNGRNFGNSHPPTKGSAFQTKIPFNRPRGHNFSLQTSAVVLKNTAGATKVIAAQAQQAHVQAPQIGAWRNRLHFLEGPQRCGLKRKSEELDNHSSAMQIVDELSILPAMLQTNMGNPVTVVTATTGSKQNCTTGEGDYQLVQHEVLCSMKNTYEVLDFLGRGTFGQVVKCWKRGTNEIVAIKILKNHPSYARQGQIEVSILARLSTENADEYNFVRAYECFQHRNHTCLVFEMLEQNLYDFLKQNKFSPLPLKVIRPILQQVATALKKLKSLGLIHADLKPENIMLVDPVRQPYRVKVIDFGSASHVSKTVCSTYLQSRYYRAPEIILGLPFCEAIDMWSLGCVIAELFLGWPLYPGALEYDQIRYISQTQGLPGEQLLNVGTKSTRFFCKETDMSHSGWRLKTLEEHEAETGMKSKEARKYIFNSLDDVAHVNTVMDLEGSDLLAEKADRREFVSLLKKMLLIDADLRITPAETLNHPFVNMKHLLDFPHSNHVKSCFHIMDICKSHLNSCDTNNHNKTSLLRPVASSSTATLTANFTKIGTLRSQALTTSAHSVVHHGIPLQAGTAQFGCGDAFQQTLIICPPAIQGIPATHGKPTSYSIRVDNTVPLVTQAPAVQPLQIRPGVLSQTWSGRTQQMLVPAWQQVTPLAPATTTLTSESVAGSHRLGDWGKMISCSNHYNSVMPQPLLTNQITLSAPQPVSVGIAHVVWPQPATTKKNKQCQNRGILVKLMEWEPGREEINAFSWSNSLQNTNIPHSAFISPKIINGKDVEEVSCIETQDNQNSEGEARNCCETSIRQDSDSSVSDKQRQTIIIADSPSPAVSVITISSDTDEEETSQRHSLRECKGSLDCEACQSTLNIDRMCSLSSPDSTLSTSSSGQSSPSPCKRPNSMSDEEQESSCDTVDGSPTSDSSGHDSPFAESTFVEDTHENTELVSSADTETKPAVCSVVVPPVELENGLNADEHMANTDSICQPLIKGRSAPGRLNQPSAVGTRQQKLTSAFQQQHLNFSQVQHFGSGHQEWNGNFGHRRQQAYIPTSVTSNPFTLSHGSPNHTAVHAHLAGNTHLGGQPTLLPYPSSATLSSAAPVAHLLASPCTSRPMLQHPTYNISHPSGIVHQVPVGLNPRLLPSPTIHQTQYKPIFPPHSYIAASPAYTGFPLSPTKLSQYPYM
# assay.procedure: radiometric filter-binding kinase assay, Kinase HotSpot
# study.conditions: compound 0.5 µM; ATP 10 µM
reported.metric: residual activity (%)
The reply should be a number in %, with the unit left off.

query: For the compound `CC(C)(C)c1nc2c3ccc(F)cc3c3c(=O)[nH]ccc3c2[nH]1` , what residual activity is on record?
result: 78.6

query: Recorded residual activity of CSc1nc(-c2ccc(F)cc2)c(-c2ccnc(NC(C)c3ccccc3)c2)[nH]1 (centres undefined) , please.
result: 101

query: Requested read-out: residual activity. Entry: `Oc1ccc(-c2nc(-c3ccc(F)cc3)c(-c3ccncc3)[nH]2)cc1`
result: 98.3

query: Record request: residual activity value, item `Cc1cc2ncc(-c3ccccc3)nc2cc1C`
result: 94.4
